- target: MAGI3_2, Q5TCQ9
- Sequence (Q5TCQ9 398-503): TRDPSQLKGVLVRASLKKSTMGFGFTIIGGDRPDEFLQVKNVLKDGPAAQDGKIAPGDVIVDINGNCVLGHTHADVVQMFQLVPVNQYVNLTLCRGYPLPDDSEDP
- test_protocol: holdup assay
- Parameters: key: below the threshold = too weak to quantify, mostly under pKd 3.1 to 4
- condition_label: plain residues with an end cap or a label only (N-terminal biotin on a linker: ttds)
Overview of recorded pKd for various binders
property_name: pKd

- RTRQRNETQV [HPV51-E6, P26554]: 5.83
- LCALPKVTTV [AGMAT, Q9BSE5]: 4.82
- PKRPFVESNV [TANC2, Q9HCD6]: 4.55
